# Tested On: T1, GST-fused GRP78-SBD (GRP78 409-651) (UniProt P11021 409-651)
# T1 construct: Used on beads in pull-downs and in solution (GST kept) in fluorescence polarisation; also called GST-GRP78(SBD); source: bacterially purified GST fusion (pGEX4T.1)
# T1 sequence (P11021 409-651): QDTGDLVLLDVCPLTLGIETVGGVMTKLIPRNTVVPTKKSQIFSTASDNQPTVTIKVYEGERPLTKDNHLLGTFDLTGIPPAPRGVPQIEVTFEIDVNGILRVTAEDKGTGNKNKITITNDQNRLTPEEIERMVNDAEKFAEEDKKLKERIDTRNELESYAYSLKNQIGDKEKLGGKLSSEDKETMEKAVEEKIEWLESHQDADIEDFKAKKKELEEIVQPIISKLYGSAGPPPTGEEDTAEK
# Protocol Details: fluorescence polarisation; 10 nM FITC-labeled 7-mer peptide with dilutions of GST-fused GRP78 SBD in Tris-GSH buffer (50 mM Tris, 10 mM reduced glutathione, 0.1% BSA, pH 8.0), 5 h at room temperature
# Stated Conditions: both partners purified
Where no end group is shown, it is not given here.
Measure: Kd (µM)
Kindly provide the numeric value in µM only, without the unit symbol.

Looking up RVMLIGK (also: FITC label, place not given here, core peptide of Bag-1, residues 214-220 on Bag-1L numbering; also called FITC-peptide) [FITC-labeled 7-mer Bag-1 peptide (214RVMLIGK220)] , I found its Kd recorded as 5.7

All figures here come from paper PMC3462190.
